- EXPERIMENTAL_TARGET: recombinant human 5-LOX (Homo sapiens)
- Sequence (P09917 1-674): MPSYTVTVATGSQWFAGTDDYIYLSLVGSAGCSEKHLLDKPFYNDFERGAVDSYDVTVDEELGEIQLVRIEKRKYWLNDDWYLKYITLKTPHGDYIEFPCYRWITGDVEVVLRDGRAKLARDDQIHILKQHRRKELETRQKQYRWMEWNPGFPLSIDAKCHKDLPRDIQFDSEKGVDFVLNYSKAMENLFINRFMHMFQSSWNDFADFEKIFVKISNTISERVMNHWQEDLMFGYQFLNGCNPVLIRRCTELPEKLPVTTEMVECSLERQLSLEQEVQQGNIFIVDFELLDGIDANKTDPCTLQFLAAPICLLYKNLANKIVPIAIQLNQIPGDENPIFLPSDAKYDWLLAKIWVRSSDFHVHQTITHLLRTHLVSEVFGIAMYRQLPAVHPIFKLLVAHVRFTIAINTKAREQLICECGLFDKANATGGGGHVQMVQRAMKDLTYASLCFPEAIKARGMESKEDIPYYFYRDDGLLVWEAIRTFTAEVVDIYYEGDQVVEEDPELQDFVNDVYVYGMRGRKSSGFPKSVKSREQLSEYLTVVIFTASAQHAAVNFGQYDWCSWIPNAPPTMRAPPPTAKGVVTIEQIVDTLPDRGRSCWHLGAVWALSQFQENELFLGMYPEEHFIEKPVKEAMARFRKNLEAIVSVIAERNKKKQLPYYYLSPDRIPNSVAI
- EXPERIMENTAL_PROTOCOL: Fluorescence Intensity 5-LOX Enzyme Assay
- TEST_SETTINGS: crude lysate of recombinant human 5-LOX; highest inhibitor concentration tested typically 25 μM
ASSAY_ENDPOINT: IC50 (nM)

Here is how some compounds turned out for IC50.
{"COMPOUND": "Cn1nccc1Oc1ccc(Sc2cccc(C3(C(N)=O)CCOCC3)c2)cc1C#N", "EXPERIMENTAL_TARGET": "recombinant human 5-LOX (Homo sapiens)", "IC50, nM": 554}
{"COMPOUND": "C[C@H]1C[C@@](C(N)=O)(c2cccc(Sc3ccc(-c4ccnn4C)c(F)c3)c2F)CCO1", "EXPERIMENTAL_TARGET": "recombinant human 5-LOX (Homo sapiens)", "IC50, nM": 15.5}
{"COMPOUND": "Cn1nccc1Cc1ccc(Sc2cccc(C3(C(N)=O)CCOCC3)c2)cc1", "EXPERIMENTAL_TARGET": "recombinant human 5-LOX (Homo sapiens)", "IC50, nM": 313}
{"COMPOUND": "NC(=O)C1(c2cccc(Sc3ccc(-c4ccnn4C4CCCCC4)cc3)c2)CCOCC1", "EXPERIMENTAL_TARGET": "recombinant human 5-LOX (Homo sapiens)", "IC50, nM": 15.9}

(A) Cn1nccc1-c1ccc(Sc2cccc(C3(C(N)=O)CCOC(C)(C)C3)c2)cc1 (centres unmarked)
(B) Cn1nccc1-c1ccc(Sc2cccc(C3(C(N)=O)CCOCC3)c2)c(Cl)c1
(C) Cn1nccc1Oc1ncc(Sc2cccc(C3(C(N)=O)CCOCC3)c2)cc1Cl
Hey, can you sort those compounds up there by IC50, smallest first? Form entry: labels listed in requested order.
B, C, A

====

- EXPERIMENTAL_TARGET: recombinant human 5-LOX (Homo sapiens, UniProt P09917)
- EXPERIMENTAL_PROTOCOL: Fluorescence Intensity 5-LOX Enzyme Assay
- Type: biochemical
- TEST_SETTINGS: crude lysate of recombinant human 5-LOX; highest inhibitor concentration tested typically 25 μM
pIC50: −log10 of the molar value.
ASSAY_ENDPOINT: pIC50

Here is how some compounds turned out for pIC50.
{"COMPOUND": "Cn1nccc1C(=O)c1ccc(Sc2cccc(C3(C#N)CCOCC3)c2)cc1 [Example 62]", "EXPERIMENTAL_TARGET": "recombinant human 5-LOX (Homo sapiens, UniProt P09917)", "pIC50": 5.67}
{"COMPOUND": "C[C@H]1C[C@@](C(N)=O)(c2cccc(Sc3ccc(-c4ccnn4C)cc3)c2)CCO1 [Example 22]", "EXPERIMENTAL_TARGET": "recombinant human 5-LOX (Homo sapiens, UniProt P09917)", "pIC50": 7.79}
{"COMPOUND": "C[C@H]1C[C@@](C(N)=O)(c2cccc(Sc3ccc(-c4ccnn4C)cc3)c2F)CCO1 [Example 29]", "EXPERIMENTAL_TARGET": "recombinant human 5-LOX (Homo sapiens, UniProt P09917)", "pIC50": 7.83}
{"COMPOUND": "CNC(=O)C1(c2cccc(Sc3ccc(C(=O)c4ccnn4C)c(Cl)c3)c2)CCOCC1 [Example 65]", "EXPERIMENTAL_TARGET": "recombinant human 5-LOX (Homo sapiens, UniProt P09917)", "pIC50": 7.09}
{"COMPOUND": "NC(=O)C1(c2cccc(Sc3ccc(-c4ccnn4C4CCCCCC4)cc3)c2)CCOCC1 [Example 4]", "EXPERIMENTAL_TARGET": "recombinant human 5-LOX (Homo sapiens, UniProt P09917)", "pIC50": 7.90}

(A) CNC(=O)C1(c2cccc(Sc3ccc(C(=O)c4ccnn4C)cc3)c2)CCOCC1 [Example 72]
(B) Cn1nccc1C(=O)c1ccc(Sc2cccc(C3(C(N)=O)CCOCC3)c2)cc1 [Example 34]
Field: entry with larger pIC50 (options A / B ). Record your answer as the label of the chosen record.
B

(I) CNC(=O)C1(c2cc(F)cc(Sc3ccc(-c4ccnn4C)cc3)c2F)CCOCC1 [Example 19]
(II) Cn1nccc1-c1ccc(Sc2cc(C3(C(N)=O)CCOCC3)ccc2F)cc1 [Example 21]
Field: entry with larger pIC50 (options I / II ). Record your answer as the label of the chosen record.
I
